- System: NCI-H748;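 further: growth inhibition of NCI-H748 cells, measured by a cell viability assay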
- assay text: cells
- Assay type: functional, cell-based, Homo sapiens
- setup conditions: Homo sapiens, NCI-H748
- Description: SANGER: Inhibition of human NCI-H748 cell growth in a cell viability assay.
readout kind: IC50

# example entries with known answers
O=C(O)c1ccc(-c2c[nH]c3ncc(-c4ccccc4)cc23)cc1C1CCCC1 [GSK-650394] : > 16 µM
CCN(CC)CCNC(=O)c1c(C)[nH]c(/C=C2\C(=O)Nc3ccc(F)cc32)c1C [SUNITINIB] : > 8 µM
C=C(c1ccc(C(=O)O)cc1)c1cc2c(cc1C)C(C)(C)CCC2(C)C [BEXAROTENE] : > 8 µM
Nc1ccn([C@@H]2O[C@H](CO)[C@@H](O)C2(F)F)c(=O)n1 [GEMCITABINE] : 0.355 µM
COc1cc(-c2nn([C@H]3CC[C@H](N4CCN(C(C)=O)CC4)CC3)c3ncnc(N)c23)ccc1NC(=O)c1cc2ccccc2n1C : > 5.12 µM

Requested field: IC50. Item: N[C@@H](CSC(c1ccccc1)(c1ccccc1)c1ccccc1)C(=O)O [S-TRITYL-L-CYSTEINE]
> 5.12 µM

Requested field: IC50. Item: COc1cc(N2CCN(C)CC2)ccc1Nc1ncc2c(n1)N(C)c1ccccc1C(=O)N2C
> 8 µM

----------
IC50 values by entry
- Test system: NCI-H2452;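 further: growth inhibition of NCI-H2452 cells, read out with a cell viability assay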
- assay text: cells
- Type: functional, cell-based, Homo sapiens
- setup conditions: nci-h2452
- Description: SANGER: Inhibition of human NCI-H2452 cell growth in a cell viability assay.
Only the number, expressed in mM, is required.

CISPLATIN : 0.213

Query sequence follows.
Requested field: IC50. Item: BLEOMYCIN
2.14

----------
pIC50 values by entry
- Tested on: SJSA-1;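 further: growth inhibition of human SJSA-1 cells, read out through a cell viability measurement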
- assay text: cells
- Format: functional, cell-based, Homo sapiens
- setup conditions: Homo sapiens, SJSA-1
- Description: SANGER: Inhibition of human SJSA-1 cell growth in a cell viability assay.
Kindly note that pIC50 refers to -log10 of the concentration in mol/L and answer with the value alone.

CC(=O)O[C@H]1C(=O)[C@@]2(C)[C@H]([C@H](OC(=O)c3ccccc3)[C@]3(O)C[C@H](OC(=O)[C@H](O)[C@@H](NC(=O)c4ccccc4)c4ccccc4)C(C)=C1C3(C)C)[C@]1(OC(C)=O)CO[C@@H]1C[C@@H]2O : 7.75
Cc1cc([N+](=O)[O-])ccc1NS(=O)(=O)c1cc(Cl)ccc1Cl : 5.24
N[C@@H](CSC(c1ccccc1)(c1ccccc1)c1ccccc1)C(=O)O : 6.12

Query molecule follows.
Requested field: pIC50. Item: CC(C)c1ccccc1Cc1cc(C(=O)Nc2ccc(S(=O)(=O)c3ccccc3C(C)(C)C)cc2)c(O)c(O)c1O
6.49

----------
- System: DSH1;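 further: growth inhibition of human DSH1 cells, measured with a cell viability readout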
- assay text: cells
- Format: functional, cell-based, Homo sapiens
- setup conditions: dsh1
- Description: SANGER: Inhibition of human DSH1 cell growth in a cell viability assay.
readout kind: IC50 (µM)
Only the number, expressed in µM, is required.

Requested field: IC50. Item: CISPLATIN
145

----------
- Test system: NCI-H82
- assay text: cells
- Format: functional, cell-based, Homo sapiens
- setup conditions: Homo sapiens, NCI-H82
- Description: SANGER: Inhibition of human NCI-H82 cell growth in a cell viability assay.
readout kind: IC50

Nc1ccn([C@@H]2O[C@H](CO)[C@@H](O)C2(F)F)c(=O)n1 : 373 nM
OCCCNc1cc(-c2ccnc(Nc3cccc(Cl)c3)n2)ccn1 : > 256 nM
CCC/C=C/C=C/C(=O)O[C@H]1/C(=C/C(=O)OC)C[C@H]2C[C@H]([C@@H](C)O)OC(=O)C[C@H](O)C[C@@H]3C[C@H](OC(C)=O)C(C)(C)[C@](O)(C[C@@H]4C/C(=C/C(=O)OC)C[C@H](/C=C/C(C)(C)[C@]1(O)O2)O4)O3 : > 8 nM

Requested field: IC50. Item: Oc1ccc2ccccc2c1SSc1c(O)ccc2ccccc12
> 32000 nM

Requested field: IC50. Item: CC[C@H](CO)Nc1nc(NCc2ccccc2)c2ncn(C(C)C)c2n1
> 16000 nM
